# Subject Of Test: PPARα (Homo sapiens (Human), UniProt Q07869)
# Sequence (Q07869 239-466, species assumed): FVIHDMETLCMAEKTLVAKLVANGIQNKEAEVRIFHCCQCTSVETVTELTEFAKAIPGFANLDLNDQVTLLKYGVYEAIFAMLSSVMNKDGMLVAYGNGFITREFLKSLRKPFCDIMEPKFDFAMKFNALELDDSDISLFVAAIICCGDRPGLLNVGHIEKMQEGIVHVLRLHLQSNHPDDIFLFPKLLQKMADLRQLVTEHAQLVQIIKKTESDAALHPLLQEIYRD
# Method Summary: Nuclear hormone receptor selectivity assay (GAL4-NHR-LBD luciferase, HEK293)
# Study Conditions: antagonist mode, reference agonist at EC80
pIC50: −log10 of the molar value.
Measured Quantity: pIC50

- O=C(O)[C@@H]1CC=C(c2nn(C(=O)c3c(Cl)cccc3C3(C(F)(F)F)CC3)c3c2CC[C@@H](C(=O)N2CCC4(COC4)C2)C3)CC1: < 5.00

* * *

# Subject Of Test: VDR (Homo sapiens (Human))
# Sequence (P11473 127-423, species assumed): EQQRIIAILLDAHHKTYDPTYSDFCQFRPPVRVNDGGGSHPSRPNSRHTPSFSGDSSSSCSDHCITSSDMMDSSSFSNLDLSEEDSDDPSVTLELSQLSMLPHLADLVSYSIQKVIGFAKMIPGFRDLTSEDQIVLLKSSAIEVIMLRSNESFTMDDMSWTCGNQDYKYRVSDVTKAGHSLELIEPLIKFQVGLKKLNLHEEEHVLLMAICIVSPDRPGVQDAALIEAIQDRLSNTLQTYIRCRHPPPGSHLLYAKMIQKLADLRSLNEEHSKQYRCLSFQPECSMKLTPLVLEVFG
# Method Summary: Nuclear hormone receptor selectivity assay (GAL4-NHR-LBD luciferase, HEK293)
# Study Conditions: agonist mode
# Procedure: In the assay system used, an activated GAL4-nuclear hormone receptor (NHR) fusion construct binds to an upstream activation sequence (UAS) and drives a luciferase reporter gene. […] After 16-24 hours, luciferase activity was measured. […] The luciferase signal was measured on an Envision plate reader (Perkin Elmer) set to the ultra-sensitive luminescence setting.
Measured Quantity: EC50

- O=C(O)[C@@H]1CC=C(c2nn(C(=O)c3c(Cl)cccc3C3(C(F)(F)F)CC3)c3c2CC[C@@H](C(=O)N2CCC4(COC4)C2)C3)CC1 [Test Compound]: > 10 µM
